Test system: UMC-11
Experiment: relative viability (nuclei count vs DMSO), 5 days (fraction); higher = more cells survive
Details: first compound 4 µM
Documented relative viability across a set of compounds
endpoint-label: relative viability

compound	meas-value
COc1cc(N2CCC(C(N)=O)CC2)ccc1Nc1nc(N)c(Cl)c(Nc2ccccc2S(=O)(=O)C(C)C)n1 [HG-5-88-01] + CC(=O)c1c(C)c2cnc(Nc3ccc(N4CCNCC4)cn3)nc2n(C2CCCC2)c1=O [Palbociclib] (partner 0.5 µM)	0.308
COc1cc(N2CCC(C(N)=O)CC2)ccc1Nc1nc(N)c(Cl)c(Nc2ccccc2S(=O)(=O)C(C)C)n1 [HG-5-88-01] + Nc1nc2[nH]cc(CCc3ccc(C(=O)N[C@@H](CCC(=O)O)C(=O)O)cc3)c2c(=O)[nH]1 [Pemetrexed] (partner 0.2 µM)	0.789
COc1cc(N2CCC(C(N)=O)CC2)ccc1Nc1nc(N)c(Cl)c(Nc2ccccc2S(=O)(=O)C(C)C)n1 [HG-5-88-01] + O=C(c1cc(Cc2n[nH]c(=O)c3ccccc23)ccc1F)N1CCN(C(=O)C2CC2)CC1 [Olaparib] (partner 8 µM)	0.274
Clc1ccc(Nc2nnc(Cc3ccncc3)c3ccccc23)cc1 [Vatalanib] + C[C@]1(O)C[C@@H](c2nc(-c3ccc4ccc(-c5ccccc5)nc4c3)c3c(N)nccn32)C1 [Linsitinib] (partner 1 µM)	0.987
Clc1ccc(Nc2nnc(Cc3ccncc3)c3ccccc23)cc1 [Vatalanib] + CC(=O)Nc1cccc(-n2c(=O)n(C3CC3)c(=O)c3c(Nc4ccc(I)cc4F)n(C)c(=O)c(C)c32)c1 [Trametinib] (partner 0.02 µM)	0.847

###

System: LC-2-ad
Experiment: relative viability (nuclei count vs DMSO), 5 days (fraction); higher = more cells survive
Settings: first compound 0.03162 µM

compound	relative viability
CC(C)Oc1cc(Nc2nc(N[C@@H](C)c3ccc(F)cn3)ncc2Cl)n[nH]1 [AZ23] + Nc1ncn([C@H]2C[C@H](O)[C@@H](CO)O2)c(=O)n1 [Decitabine] (partner 2 µM)	0.862
CC(C)Oc1cc(Nc2nc(N[C@@H](C)c3ccc(F)cn3)ncc2Cl)n[nH]1 [AZ23] + CC(C)C[C@H](NC(=O)[C@H](Cc1ccccc1)NC(=O)c1cnccn1)B(O)O [Bortezomib] (partner 0.002 µM)	1.2
CC(C)Oc1cc(Nc2nc(N[C@@H](C)c3ccc(F)cn3)ncc2Cl)n[nH]1 [AZ23] + CC1(C)CCC(c2ccc(Cl)cc2)=C(CN2CCN(c3ccc(C(=O)NS(=O)(=O)c4ccc(N[C@H](CCN5CCOCC5)CSc5ccccc5)c(S(=O)(=O)C(F)(F)F)c4)cc3)CC2)C1 [Navitoclax] (partner 0.5 µM)	0.474
CC(C)Oc1cc(Nc2nc(N[C@@H](C)c3ccc(F)cn3)ncc2Cl)n[nH]1 [AZ23] + Cc1cc(Nc2cc(N3CCN(C)CC3)nc(Sc3ccc(NC(=O)C4CC4)cc3)n2)n[nH]1 [Tozasertib] (partner 0.1 µM)	0.446
CC(C)Oc1cc(Nc2nc(N[C@@H](C)c3ccc(F)cn3)ncc2Cl)n[nH]1 [AZ23] + NC(=O)Nc1cc(-c2cccc(F)c2)sc1C(=O)N[C@H]1CCCNC1 [AZD7762] (partner 0.2 µM)	1.05
CC(C)Oc1cc(Nc2nc(N[C@@H](C)c3ccc(F)cn3)ncc2Cl)n[nH]1 [AZ23] + C[C@@H](Oc1cc(-c2cnn(C3CCNCC3)c2)cnc1N)c1c(Cl)ccc(F)c1Cl [Crizotinib] (partner 1 µM)	0.458
CC(C)Oc1cc(Nc2nc(N[C@@H](C)c3ccc(F)cn3)ncc2Cl)n[nH]1 [AZ23] + COc1cccc2cc(-c3nc([C@H]4CC[C@H](C(=O)O)CC4)n4ncnc(N)c34)[nH]c12 [OSI-027] (partner 0.5 µM)	0.802
CC(C)Oc1cc(Nc2nc(N[C@@H](C)c3ccc(F)cn3)ncc2Cl)n[nH]1 [AZ23] + CCNC(=O)c1noc(-c2cc(C(C)C)c(O)cc2O)c1-c1ccc(CN2CCOCC2)cc1 [Luminespib] (partner 0.01 µM)	0.965
CC(C)Oc1cc(Nc2nc(N[C@@H](C)c3ccc(F)cn3)ncc2Cl)n[nH]1 [AZ23] + CS(=O)(=O)CCNCc1ccc(-c2ccc3ncnc(Nc4ccc(OCc5cccc(F)c5)c(Cl)c4)c3c2)o1 [Lapatinib] (partner 2 µM)	0.997
CC(C)Oc1cc(Nc2nc(N[C@@H](C)c3ccc(F)cn3)ncc2Cl)n[nH]1 [AZ23] + N=C(N)NC(=N)NCCc1ccccc1 [Phenformin] (partner 250 µM)	0.611
CC(C)Oc1cc(Nc2nc(N[C@@H](C)c3ccc(F)cn3)ncc2Cl)n[nH]1 [AZ23] + Nc1nc2[nH]cc(CCc3ccc(C(=O)N[C@@H](CCC(=O)O)C(=O)O)cc3)c2c(=O)[nH]1 [Pemetrexed] (partner 0.2 µM)	0.279
